Measured melting point, listed per entry for reference.

molecule: OC1CCOc2ccc(C=Cc3nc4cc(F)ccc4s3)cc21 (stereo not given)
melting point: 184 to 186 °C
//
molecule: COc1ccc(CSc2ccncc2C(=O)O)cc1
melting point: 230 °C
//
molecule: COc1nc(SC)nc(Cl)c1C(=O)NCc1ncccn1
melting point: 176 to 177 °C
//
molecule: CCOC(=O)c1csc(/C=C/c2cccc(N)c2)n1
melting point: 112 to 113 °C
//
molecule: CCC1CC(=O)N(Cc2cccc(NS(C)(=O)=O)c2)N=C1c1ccc(OC)c(OC2CCCC2)c1 (stereo not given)
melting point: 113 °C
//
molecule: N[C@@H](Cc1cccc(OC(F)(F)C(F)F)c1)[C@H](O)c1ccc(F)nc1 (racemic)
melting point: 103 to 104 °C
//
molecule: O=C(CCO)NCc1ccc2ccn(C3CCN(CCc4ccccc4F)CC3)c2c1
melting point: 58 to 59 °C
//
molecule: Clc1ccccc1-c1n[nH]c(SCc2ccccc2)n1
melting point: 84 to 86 °C
//
molecule: O=C(O)COc1ccc2c(=O)c3c(F)cccc3oc2c1
melting point: 180 to 183 °C
//
molecule: CCCCOP(=O)(C/C=C/CC1(C(=O)NCCC)c2cc(F)ccc2-c2ccc(F)cc21)OCCCC
melting point: 142 to 146 °C
//
molecule: CCOC(=O)CC(=O)c1ccc(C#N)cc1
melting point: 64 °C
//
molecule: O=c1oc(-c2ccccc2)ns1
melting point: 64 to 67 °C
//
molecule: O=[N+]([O-])c1ccc(-n2ccnc2)cc1Sc1cccc2cnccc12
melting point: 178 to 188 °C
//
molecule: CC(C)=NOCc1nc2c(N)nc3cccnc3c2n1CCCNC(=O)NC1CCCCC1
melting point: 207 to 208 °C
//
molecule: CC(O)C1CCC(CNC(=O)OC(C)(C)C)CC1 (stereo not given)
melting point: 75 to 76 °C
//
molecule: CC(=O)Oc1nsnc1-c1c(Cl)cccc1Cl
melting point: 56 to 59 °C
//
molecule: O=C1C(=CCc2ccccc2)SC(=S)N1N=c1sc2ccccc2s1
melting point: 233 to 234 °C
//
molecule: CS(=O)c1ccc(F)c(-c2nc3ncccc3[nH]2)c1 (stereo not given)
melting point: 190 to 192 °C
//
molecule: CCn1c(COC(=O)OCc2nc(C(C)C)c(Sc3cc(Cl)cc(Cl)c3)n2CC)nc(C(C)C)c1Sc1cc(Cl)cc(Cl)c1
melting point: 73 to 76 °C
//
molecule: CC(C)(C)OC(=O)N[C@@H](Cc1ccccc1)[C@@H](O)C[C@@H](Cc1ccc(O)cc1)C(=O)N[C@H]1c2ccccc2C[C@H]1O
melting point: 218 to 219 °C
//
molecule: Nc1ccc(S(=O)(=O)c2cc(-c3ccccc3F)nc(N3CCCC3)c2)cc1
melting point: 246 to 248 °C
//
molecule: CC1(C)Oc2c(N)ccc(Cl)c2C1=O
melting point: 71 to 73 °C
//
molecule: COC(=O)CCC(=O)c1ccc(-c2ccc(C(C)(C)C)cc2)cc1
melting point: 58 to 62 °C
//
molecule: COc1cc(N2CCN(C[C@H](C)O)CC2)ccc1Nc1ncc2ccc(-c3ccccc3OC)n2n1
melting point: 76 to 85 °C
//
molecule: CC(C)(Cc1ccc(OC(F)(F)F)cc1)C(=O)C(C)(C)n1cncn1
melting point: 100 °C
//
molecule: CCC(O)(CC)[C@H](C[C@H](O)[C@H](CC1CCCCC1)NC(=O)[C@H](Cc1cscn1)NC(=O)OC(C)(C)C)C(=O)NC
melting point: 165 to 168 °C
//
molecule: CNC(C)C(=O)Nc1cccc2c1C(=O)c1c(NC(=O)C(C)NC)cccc1C2=O (stereo not given)
melting point: 233 to 234 °C
//
molecule: COC(=O)c1cc(Br)ccc1O
melting point: 59 to 61.5 °C
//
molecule: C#CCc1c(C)nc2c(OCc3ccccc3)cccn12
melting point: 112 °C
//
molecule: Cc1ncccc1C(=O)NCC1CCN(C[C@H]2COc3cccc(Cl)c3O2)CC1
melting point: 147 to 149 °C
//
molecule: Cn1ncc(/C=C/C(=O)O)c1-c1cccnc1
melting point: 236 to 237 °C
//
molecule: CCN(CC)CCOc1ccc2cc3ccc(OCCN(CC)CC)cc3nc2c1
melting point: 94 to 95 °C
//
molecule: CCn1c2ccccc2c2cc(N(c3ccccc3)c3ccc(-c4ccc(N(c5ccccc5)c5ccc6c(c5)c5ccccc5n6CC)cc4)cc3)ccc21
melting point: 250 to 252 °C
//
molecule: CC(C)c1ccc2c(c1)c(Sc1ccccc1)c(CC(=O)O)n2Cc1ccc(Cl)cc1
melting point: 151 to 153 °C
//
molecule: O=[N+]([O-])c1ccc(CO)c(Cl)c1
melting point: 62 to 64 °C
//
molecule: Nc1ccc(-c2ccc(N)cc2Br)c(Br)c1
melting point: 151 to 153 °C
//
molecule: CC(C)(C)c1cc(I)c(O)c(CNC(=O)C(F)(F)F)c1
melting point: 118 to 119 °C
//
molecule: CC(C)c1ccccc1NC(=N)Nc1cccc2ccccc12
melting point: 175 to 177 °C
//
molecule: CN1CC[C@@H](c2c(O)cc(O)c3c(=O)cc(-c4cccc(Cl)c4)oc23)[C@@H]1CO
melting point: 146 to 147 °C
//
molecule: CCOC(=O)C=Cc1ccc2c(c1)CC(NC(=O)OC(C)(C)C)CC2 (stereo not given)
melting point: 99 to 100 °C
